- SUBJECT_OF_TEST: T1, His-tagged cynomolgus monkey TIGIT (Acro Biosystems #TIT-05223) (cynomolgus monkey, UniProt A0A7N9I9V4 89-209)
- T1 construct: Bought protein; also called cyno TIGIT; cynomolgus TIGIT; not shown: His tag
- ASSAY_TEXT: SPR (Carterra LSA), scFv-Fc captured, His-TIGIT analyte; repeat
In this section we review reported Kd values for a set of binders.
Report as a plain number; the unit nM is understood.

Below: 5 binders and their reported Kd.
{"columns": ["BINDER", "UNIT_SYMBOL", "REPORTED_VALUE"],
 "data": [
  ["43586p1.2.F9 (scFv, V domains shown) VH: EVQLLESGGGLVQPGGSLRLSCAASGFTFDDYVMSWVRQAPGKGLEWVSLINWNGDKTYYADSVKGRFTISRDNSKNTLYLQMNSLRAEDTAIYYCAKHWIVFQYGMDVWGRGTTVTVSS VL: QSVLTQPPSASGTPGQRVTISCSGSISNIETKYVSWYQQLPGTAPKLLIYNSDQRPSGVPDRFSGSKSGTSASLAISGLQSEDEADYYCVSWDASLKSWVFGGGTKLTVL", "nM", 2],
  ["43586p2.D11 (scFv, V domains shown) VH: EVQLLESGGGLVQPGGSLRLSCAASGFTFDDYVMSWVRQAPGKGLEWVSLINWSGGTTYYADSVKGRFTISRDNSKNTLYLQMNSLRAEDTAVYYCAKHWIVYQYGMDVWGQGTTVTVSS VL: QSVLTQPSSASGTPGQRVAISCSGTISNIETKYVSWYKYVSWYQQLPGTAPKLLIYNNVQRPSGVPDRFSGSQSGTSASLAISGLQSEDEAHYYCASWEGGLNSWVFGGGTKLTVL", "nM", 4.4],
  ["43352p1.H8 (scFv, V domains shown) VH: DVQLVESGGGVVRPGESLRLSCAASGFNFSTYAMNWVRQAPGEGLEWVSGISGRSSGDTTYYADSVRGWFTVSRDNSKNTLYLQMSSLRAEDTAVYYCARETWIRGYFDYWGLGTLVTVSS VL: QSVLTQPPSASGTPGQRVTISCSGSRSNLGNNLVYWYQQLPGTAPKLLIYFNNERPSGVPDRFSGSKSGTSASLAISGVQSEDEADYYCATWDDSLNGWVFGGGTKLTVL", "nM", 114],
  ["43586p1.2.E1 (scFv, V domains shown) VH: EVQLLESGGGLVQPGGSLRLSCAASGFTFSDYLMTWVRQAPGKELEWVSTITWDGDRTYYADSVKGRFTISRDNSKNTLYLQMNSLRAEDTAVYYCAKHWTVFQYGMDVWGQGTTVTVSS VL: QSVLTQPPSASGTPGQRVTISCSGTISNIEIKYVSWYQQLPGTAPKLLIYGNHQRPSGVPDRFSGSKSGTSASLAISGLQSEDEADYYCSSWENDLKSWVFGGGTKLTVL", "nM", 3.2],
  ["43586p1.2.E4 (scFv, V domains shown) VH: EVQLLESGGGLVQPGGSLRLSCAASGFTFSDYLMTWVRQAPGKGLEWVSTITWDGDRTYYADSVKGRFTISRDNSKNTLYLQMNSLRAEDTAVYYCAKHWTVFQYGMDVWGQGTTVTVSS VL: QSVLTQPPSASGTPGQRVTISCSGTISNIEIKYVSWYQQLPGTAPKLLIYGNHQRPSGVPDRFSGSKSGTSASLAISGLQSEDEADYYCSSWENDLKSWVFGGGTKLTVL", "nM", 2.8]
]}

Below: the item to evaluate.
Prompt: Given 43645p1.B2 (scFv, V domains shown) VH: EVQLLESGGGLVQPGGSLRLSCATSGFTFSSYWMSWVRQAPGKGLEWVSGIHISDSTYYADSVKGRFTISRDNSKNTLYLQMNSLRAEDTAVYYCAKGHTVLQYGMDVWGQGTTVTVSS VL: QSGLTQPPSASGTPGQRVTISCSGDISNTRNNYVSWYQQLPGTAPKLLIYGNHQRPSGVPDRFSGSKSATSASLAISGLQSEDEADYHCGTWDNTLNAWVFGGGTKLTVL , state its recorded Kd.
Response: 0.93
